Values from ChEMBL document CHEMBL1122319

- Test system: Rattus norvegicus
- Method Summary: Reduction in paw swelling at 100 mg/kg po dose in rat using adjuvant arthritis test.
- Type: functional
Lab note: class by Reduction, see low band = under 10, middle band = from 10 up to 20, high band = 20 and over

Kindly identify the class of CCCCc1ccc(Cl)c(Oc2ccc(C)cc2CC(=O)O)c1 .
low band

Another compound: Cc1ccc(Oc2ccc(Cl)cc2CC(=O)O)c(C)c1
high band

Another compound: O=C(O)Cc1ccccc1Oc1cc(Cl)ccc1Cl
middle band

Another compound: O=C(O)C(=O)c1ccccc1Oc1ccc(Cl)cc1Cl
high band

Another compound: O=C(O)Cc1cc(Cl)ccc1Oc1cc(Cl)ccc1Cl
high band

Another compound: O=C(O)Cc1cc(Cl)ccc1Oc1ccccc1F
high band

Another compound: Cc1ccc(Oc2ccc(-c3ccccc3)cc2Cl)c(CC(=O)O)c1
high band

Another compound: O=C(O)Cc1cc(Cl)ccc1Oc1ccc(Cl)cc1
high band

Another compound: Cc1ccc(Oc2ccc(C(C)(C)C)cc2Cl)c(CC(=O)O)c1
high band

Another compound: Cc1cc(Oc2ccc(Cl)cc2CC(=O)O)c(Cl)c(C)c1Cl
high band

Another compound: Cc1cc(Cl)ccc1Oc1ccccc1CC(=O)O
low band

Another compound: CCc1ccc(Oc2ccc(C)cc2CC(=O)O)c(Cl)c1
high band

Another compound: Cc1ccc(Oc2cc(C)c(Cl)cc2Cl)c(CC(=O)O)c1
high band

Another compound: CCOC(=O)Cc1ccccc1Oc1ccc(Cl)cc1Cl
high band

Another compound: Cc1ccc(Oc2cccc(Cl)c2Cl)c(CC(=O)O)c1
middle band

Another compound: CC(C(=O)O)c1ccccc1Oc1ccc(Cl)cc1Cl (stereo not given)
low band

Another compound: O=C(O)Cc1ccccc1Oc1cc(Cl)c(Cl)cc1Cl
middle band

Another compound: Cc1ccc(Oc2ccccc2Cl)c(CC(=O)O)c1
middle band

Another compound: Cc1ccc(Oc2cc(O)c(C)cc2CC(=O)O)c(Cl)c1
middle band

Another compound: Cc1ccc(Oc2ccc(C(F)(F)F)cc2CC(=O)O)c(Cl)c1
low band

Another compound: Cc1ccc(Oc2ccc(CC(C)C)cc2Cl)c(CC(=O)O)c1
middle band

Another compound: Nc1ccc(Oc2ccc(Cl)cc2Cl)c(CC(=O)O)c1
low band

Another compound: O=C(O)Cc1ccccc1Oc1c(Cl)cc(Cl)cc1Cl
high band

Another compound: O=C(O)Cc1ccc(Oc2ccc(Cl)cc2Cl)cc1
low band

Another compound: Cc1ccc(Oc2ccc(Cl)c(C)c2)c(CC(=O)O)c1
low band

Another compound: O=C(O)Cc1cc(Cl)ccc1Oc1ccccc1Cl
low band

Another compound: Cc1ccc(Oc2c(Cl)cccc2Cl)c(CC(=O)O)c1
middle band

Another compound: CCc1ccc(Oc2ccc(C)cc2CC(=O)O)c(CC)c1
low band

Another compound: Cc1ccc(Oc2ccc(Cl)c(Cl)c2)c(CC(=O)O)c1
low band

Another compound: CCc1cc(Cl)ccc1Oc1ccc(C)cc1CC(=O)O
middle band

Another compound: Cc1ccc(Oc2ccc(C)cc2CC(=O)O)c(Cl)c1
high band

====

Give Reduction for every item shown.
- Test system: Rattus norvegicus
- Method Summary: Reduction in paw swelling at 100 mg/kg po dose in rat using adjuvant arthritis test.
- Format: functional
When you answer, write just the number.

What does the record list as Reduction for COc1ccc(Oc2ccc(Cl)cc2Cl)c(CC(=O)O)c1 ?
3

Another compound: Cc1ccc(Oc2ccc(C)cc2CC(=O)O)c(C)c1
20

Another compound: Cc1ccc(Oc2ccc(Cl)cc2C)c(CC(=O)O)c1
17

Another compound: O=C(O)CCc1ccccc1Oc1ccc(Cl)cc1Cl
0

Another compound: Cc1ccc(Oc2cc(C)c(Cl)cc2C(C)C)c(CC(=O)O)c1
3

Another compound: Cc1ccc(Oc2ccccc2CC(=O)O)c(Cl)c1
21

Another compound: Cc1cc(Oc2ccccc2CC(=O)O)c(Cl)c(C)c1Cl
34

Another compound: Cc1cc(Oc2ccc(Cl)cc2CC(=O)O)cc(C)c1Cl
23

Another compound: O=C(O)Cc1cc(Cl)ccc1Oc1cccc(Cl)c1
0

Another compound: Cc1ccc(Oc2cc(Cl)ccc2Cl)c(CC(=O)O)c1
32

Another compound: Cc1cc(Oc2ccccc2CC(=O)O)c(Cl)cc1Cl
19

Another compound: O=C(O)Cc1ccccc1Oc1ccc(Br)cc1Br
29

Another compound: Cc1ccc(Oc2ccccc2F)c(CC(=O)O)c1
24

Another compound: COc1ccccc1Oc1ccccc1CC(=O)O
38

Another compound: O=C(O)Cc1cc(Cl)ccc1Oc1ccc(Cl)cc1Cl
37

Another compound: Cc1ccc(Oc2ccc(Cl)cc2CC(=O)O)c(Cl)c1
10

Another compound: Cc1ccc(Oc2cc(C)cc(C)c2C)c(CC(=O)O)c1
11

Another compound: Cc1ccc(Oc2ccc(C(C)C)cc2Cl)c(CC(=O)O)c1
30

Another compound: Cc1ccc(Oc2ccc(O)cc2CC(=O)O)c(Cl)c1
10

Another compound: O=C(O)Cc1cc(Cl)ccc1Oc1ccc(O)cc1Cl
36

Another compound: O=C(O)Cc1ccccc1Oc1ccc(Cl)cc1Cl [FENCLOFENAC]
36

Another compound: O=C(O)Cc1ccccc1Oc1ccc(Cl)cc1
0
